# target system: T1, extracellular domain of rhesus monkey BCMA (rhesus monkey, UniProt F7FFA0 1-53)
# T1 construct: extracellular domain; also called RhBCMA
# T1 sequence (F7FFA0 entry or part of it): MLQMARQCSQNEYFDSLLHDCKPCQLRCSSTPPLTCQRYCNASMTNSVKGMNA
# test: Octet BLI; Fab 200 nM
Measured pKd values are reported for all entries that follow.
The value called pKd is obtained by taking minus log10 of the concentration in mol/L.

AB200-R1a-Fab_Vk14 (Fab, V domains shown) VH: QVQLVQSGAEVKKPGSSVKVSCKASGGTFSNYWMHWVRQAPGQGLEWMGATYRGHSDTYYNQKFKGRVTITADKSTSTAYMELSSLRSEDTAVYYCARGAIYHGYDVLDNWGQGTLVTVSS VL: DIQMTQSPSSLSASVGDRVTITCSASQDISNYLNWYQQKPGKAPKLLIYYSSNMHSGVPSRFSGSGSGTDFTLTISSLQPEDFATYYCQQFRKLPWTFGQGTKLEIKR	7.94
AB200-R1a-Fab_Vk8 (Fab, V domains shown) VH: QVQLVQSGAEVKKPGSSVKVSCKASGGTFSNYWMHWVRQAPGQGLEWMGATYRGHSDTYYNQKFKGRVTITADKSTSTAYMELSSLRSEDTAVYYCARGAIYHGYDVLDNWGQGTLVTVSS VL: DIQMTQSPSSLSASVGDRVTITCSASQDISNYLNWYQQKPGKAPKLLIYYTSNLQSGVPSRFSGSGSGTDFTLTISSLQPEDFATYYCHQSRKLPWTFGQGTKLEIKR	7.38
AB200-R1a-Fab_Vk3 (Fab, V domains shown) VH: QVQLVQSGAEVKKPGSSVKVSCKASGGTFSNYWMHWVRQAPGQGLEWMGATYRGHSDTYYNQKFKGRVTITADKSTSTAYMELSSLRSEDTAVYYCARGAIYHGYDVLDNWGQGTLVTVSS VL: DIQMTQSPSSLSASVGDRVTITCSASQDISNYINWYQQKPGKAPKLLIYYTSNMHSGVPSRFSGSGSGTDFTLTISSLQPEDFATYYCQQYRKLPWSFGQGTKLEIKR	8.21
AB200-R1a-Fab(hCDR1) (Fab, V domains shown) VH: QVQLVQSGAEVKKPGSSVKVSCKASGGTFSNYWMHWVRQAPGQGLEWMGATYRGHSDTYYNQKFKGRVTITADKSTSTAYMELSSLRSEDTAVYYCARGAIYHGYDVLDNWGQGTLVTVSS VL: DIQMTQSPSSLSASVGDRVTITCRASQSISSYLNWYQQKPGKAPKLLIYYTSNLHSGVPSRFSGSGSGTDFTLTISSLQPEDFATYYCQQYRKLPWTFGQGTKLEIKR	8.28
AB200-R1a-Fab_Vk10 (Fab, V domains shown) VH: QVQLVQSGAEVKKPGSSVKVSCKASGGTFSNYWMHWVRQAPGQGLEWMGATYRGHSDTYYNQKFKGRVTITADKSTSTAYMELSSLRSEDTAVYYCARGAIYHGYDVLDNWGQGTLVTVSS VL: DIQMTQSPSSLSASVGDRVTITCSASQSISNYLNWYQQKPGKAPKLLIYYTSNLHSGVPSRFSGSGSGTDFTLTISSLQPEDFATYYCQQSRKMPWTFGQGTKLEIKR	6.71
AB200-R1a-Fab_Vk35 (Fab, V domains shown) VH: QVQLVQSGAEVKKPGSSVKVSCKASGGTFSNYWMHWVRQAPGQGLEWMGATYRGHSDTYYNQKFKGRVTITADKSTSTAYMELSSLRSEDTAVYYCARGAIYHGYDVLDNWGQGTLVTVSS VL: DIQMTQSPSSLSASVGDRVTITCSASQDLSNYLNWYQQKPGKAPKLLIYYTSNLHSGVPSRFSGSGSGTDFTLTISSLQPEDFATYYCQQYKKIPWTFGQGTKLEIKR	7.72
AB200-R1a-Fab_Vk34 (Fab, V domains shown) VH: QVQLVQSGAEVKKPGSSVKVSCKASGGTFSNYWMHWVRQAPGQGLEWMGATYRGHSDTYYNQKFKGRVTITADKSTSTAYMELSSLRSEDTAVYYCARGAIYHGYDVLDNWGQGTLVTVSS VL: DIQMTQSPSSLSASVGDRVTITCSASHDISNYLNWYQQKPGKAPKLLIYYTSNLHSGVPSRFSGSGSGTDFTLTISSLQPEDFATYYCHEYRKLPWTFGQGTKLEIKR	7.13
AB200-R1a-Fab_Vk4 (Fab, V domains shown) VH: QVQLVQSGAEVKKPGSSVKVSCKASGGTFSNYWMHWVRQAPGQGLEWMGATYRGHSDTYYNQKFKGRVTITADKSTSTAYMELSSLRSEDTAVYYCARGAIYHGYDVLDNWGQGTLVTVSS VL: DIQMTQSPSSLSASVGDRVTITCTATQDITNYLNWYQQKPGKAPKLLIYYTSNLHSGVPSRFSGSGSGTDFTLTISSLQPEDFATYYCQQYRKLPWTFGQGTKLEIKR	8.10

pKd for AB200-R1a-Fab_Vk6 (Fab, V domains shown, also called AB200 kappa variant 6; AB200_Vk6_Fab) VH: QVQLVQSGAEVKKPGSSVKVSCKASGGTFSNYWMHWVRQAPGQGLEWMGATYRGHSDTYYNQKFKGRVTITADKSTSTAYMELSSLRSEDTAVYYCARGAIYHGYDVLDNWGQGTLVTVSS VL: DIQMTQSPSSLSASVGDRVTITCSATQDISNYLNWYQQKPGKAPKLLIYFTSNLQSGVPSRFSGSGSGTDFTLTISSLQPEDFATYYCQQYRKLPWTFGQGTKLEIKR ?
8.37

What pKd value was documented for this binder, AB200-R1a-Fab_Vk33 (Fab, V domains shown) VH: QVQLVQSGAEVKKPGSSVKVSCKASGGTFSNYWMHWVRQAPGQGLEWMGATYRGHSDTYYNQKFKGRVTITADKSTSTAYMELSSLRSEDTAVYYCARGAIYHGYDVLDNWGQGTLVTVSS VL: DIQMTQSPSSLSASVGDRVTITCSASQDISSYLNWYQQKPGKAPKLLIYFTSNLHSGVPSRFSGSGSGTDFTLTISSLQPEDFATYYCQQSRKLPWTFGQGTKLEIKR ?
7.43

Data provenance is patent US20240327535A1.
